System: MCF7
Assay: Antiproliferative activity against human MCF7 cells after 72 hrs by MTS assay
Format: functional, cell-based
Settings: MCF7, 72 h
measurementName: IC50 (µM)
Just the number in µM, nothing appended.

COc1ccc(CNC(=S)SCc2nc3ccccc3c(=O)[nH]2)c(OC)c1
13.5

# IC50 (compound: COc1ccc(CNC(=S)SCc2nc3ccccc3c(=O)[nH]2)cc1 ) is 10.9

# IC50 (compound: O=c1[nH]c(CSC(=S)NCc2ccccc2F)nc2ccccc12 ) is 20.5

# IC50 (compound: O=c1[nH]c(CSC(=S)NCc2ccc(Br)cc2)nc2ccccc12 ) is 39.2

# IC50 (compound: O=c1[nH]c(CSC(=S)NCc2ccc([N+](=O)[O-])cc2)nc2ccccc12 ) is 19.3

# IC50 (compound: O=c1[nH]c(CSC(=S)NCc2ccc(F)cc2)nc2ccccc12 ) is 17.4

# IC50 (compound: O=c1[nH]c(CSC(=S)NCc2ccccc2)nc2ccccc12 ) is 31.3

# IC50 (compound: O=c1[nH]c(CSC(=S)NCc2ccc(C(F)(F)F)nc2)nc2ccccc12 ) is 19.2

# IC50 (compound: O=c1[nH]c(CSC(=S)NCc2ccc3c(c2)OCO3)nc2ccccc12 ) is 21.7

====

System: MCF7
Experiment: Antiproliferative activity against human MCF7 cells after 72 hrs by MTS assay
Assay type: functional, cell-based
Conditions: MCF7, 72 h
List of pIC50 values.
In simple prose, pIC50 is minus the logarithm base ten of a concentration in moles per litre.

Use the examples below as a reference point.
O=c1[nH]c(CSC(=S)NCc2ccc(F)cc2F)nc2ccccc12
4.69
COc1ccccc1CNC(=S)SCc1nc2ccccc2c(=O)[nH]1
4.83
Cc1ccc(CNC(=S)SCc2nc3ccccc3c(=O)[nH]2)cc1
4.67
O=c1[nH]c(CSC(=S)NCc2ccncc2)nc2ccccc12
4.79
O=c1[nH]c(CSC(=S)NCc2cccnc2)nc2ccccc12
4.69

Entry O=c1[nH]c(CSC(=S)NCc2cccs2)nc2ccccc12 , tested on MCF7, has a reported pIC50 of 4.62

Entry COc1cc(CNC(=S)SCc2nc3ccccc3c(=O)[nH]2)cc(OC)c1OC , tested on MCF7, has a reported pIC50 of 5.05
